molecules and their reported inhibition
target: Mitogen-activated protein kinase 14 (Homo sapiens); experiment: Inhibition of human P38alpha/MAPK at 10 uM in presence of 1 microM ATP
Respond with the bare value in %.

Output measured inhibition for this item: `Cc1ccc(-c2nnn(-c3cccc(C)n3)c2-c2ccc3nccnc3c2)cc1`
-5.07

Continuing:
Give a short answer stating reported inhibition for `Cc1cccc(-n2nnc(Cc3ccccc3)c2-c2ccc3nccnc3c2)n1` .
-1.94

For `Cc1cccc(-n2nnc(-c3cc(F)cc(F)c3)c2-c2ccc3nccnc3c2)n1` , write its inhibition.
40.4

Supply inhibition value. Item: `Cc1cccc(-n2nnc(CCC(C)C)c2-c2ccc3nccnc3c2)n1`
-5.91

Provide measured inhibition value, entry: `CCCCc1nnn(-c2cccc(C)n2)c1-c1ccc2nccnc2c1`
-2.52

Indicate the recorded inhibition value for this molecule: `Cc1cccc(-n2nnc(-c3ccc(F)cc3)c2-c2ccc3nccnc3c2)n1`
30.9

Given the molecule `COc1ccccc1-c1nnn(-c2cccc(C)n2)c1-c1ccc2nccnc2c1` , write its reported inhibition.
18.4

# return recorded inhibition for input `COc1cc(OC)cc(-c2nnn(-c3cccc(C)n3)c2-c2ccc3nccnc3c2)c1`
-6.87

State its inhibition for this molecule: `Cc1cccc(-n2nnc(-c3ccccc3)c2-c2ccc3nccnc3c2)n1`
31.2

* * *

Overview of recorded inhibition for various compounds
target: TGF-beta receptor type-1 (Homo sapiens); experiment: Inhibition of human ALK5 at 10 uM in presence of 1 microM ATP relative to control
Your answer is read as %, so omit the unit and give the number.

Report inhibition under test system TGF-beta receptor type-1 (Homo sapiens) for `Cc1cccc(-n2nnc(-c3cc(F)cc(F)c3)c2-c2ccc3nccnc3c2)n1` .
17.4

Print TGF-beta receptor type-1 (Homo sapiens) inhibition for `Cc1cccc(-n2nnc(CCC(C)C)c2-c2ccc3nccnc3c2)n1` .
73.1

Enter measured inhibition, system TGF-beta receptor type-1 (Homo sapiens), for the compound shown: `COc1ccc(-c2nnn(-c3cccc(C)n3)c2-c2ccc3nccnc3c2)cc1`
0.26

New cases:
# return inhibition for `COc1cc(OC)cc(-c2nnn(-c3cccc(C)n3)c2-c2ccc3nccnc3c2)c1` , test system: TGF-beta receptor type-1 (Homo sapiens)
23.4

Please report the measured inhibition for `Cc1cccc(-n2nnc(-c3ccc(F)cc3)c2-c2ccc3nccnc3c2)n1` tested on TGF-beta receptor type-1 (Homo sapiens).
8.19

* * *

The following molecules are listed with their measured pIC50 values.
Target protein (sequence): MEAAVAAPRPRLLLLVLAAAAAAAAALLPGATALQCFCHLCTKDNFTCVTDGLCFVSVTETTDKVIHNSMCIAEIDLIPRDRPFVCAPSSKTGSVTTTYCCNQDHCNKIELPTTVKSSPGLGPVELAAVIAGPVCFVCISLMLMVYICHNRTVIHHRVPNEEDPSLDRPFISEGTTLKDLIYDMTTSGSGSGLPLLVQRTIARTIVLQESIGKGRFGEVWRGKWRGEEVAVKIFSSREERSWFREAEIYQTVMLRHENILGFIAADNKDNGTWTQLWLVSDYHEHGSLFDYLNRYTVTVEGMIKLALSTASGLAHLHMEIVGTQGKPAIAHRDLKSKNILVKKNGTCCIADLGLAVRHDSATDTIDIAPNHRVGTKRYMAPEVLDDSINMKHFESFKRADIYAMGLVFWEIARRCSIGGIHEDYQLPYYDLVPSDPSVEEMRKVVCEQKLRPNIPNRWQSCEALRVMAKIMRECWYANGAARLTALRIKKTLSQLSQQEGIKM
Quick note: pIC50 means taking -log10 of the concentration in moles per liter.

Specify measured pIC50 for `COc1ccccc1-c1nnn(-c2cccc(C)n2)c1-c1ccc2nccnc2c1` .
4.46

Field: next molecule
Look up and report measured pIC50 for this entry: `Cc1cccc(-n2nnc(CCC(C)C)c2-c2ccc3nccnc3c2)n1`
5.07

* * *

target: TGF-beta receptor type-1 (Homo sapiens) (UniProt P36897); assay: Inhibition of human ALK5 at 10 uM in presence of 1 microM ATP relative to control
Measured property: inhibition (%)
# output: bare number, implied unit %

Tell me its inhibition on TGF-beta receptor type-1 (Homo sapiens) (UniProt P36897): `Cc1ccc(-c2nnn(-c3cccc(C)n3)c2-c2ccc3nccnc3c2)cc1`
20.7

State measured inhibition of the molecule `CCCCc1nnn(-c2cccc(C)n2)c1-c1ccc2nccnc2c1` with TGF-beta receptor type-1 (Homo sapiens) (UniProt P36897).
70

GET inhibition | system: TGF-beta receptor type-1 (Homo sapiens) (UniProt P36897) | item: `Cc1cccc(-n2nnc(-c3ccccc3)c2-c2ccc3nccnc3c2)n1`
-4.94

Check TGF-beta receptor type-1 (Homo sapiens) (UniProt P36897) data and give inhibition for `Cc1cccc(-n2nnc(Cc3ccccc3)c2-c2ccc3nccnc3c2)n1` .
80.8

Give measured inhibition for `Cc1cccc(-n2nnc(CCCCO)c2-c2ccc3nccnc3c2)n1` (TGF-beta receptor type-1 (Homo sapiens) (UniProt P36897)).
20.4

Send back TGF-beta receptor type-1 (Homo sapiens) (UniProt P36897) inhibition of `COc1ccccc1-c1nnn(-c2cccc(C)n2)c1-c1ccc2nccnc2c1` only.
34.9
